Target: T1, human TROP2 protein (Sino Biological, #10428-H08H) (human, UniProt P09758 27-274)
T1 construct: bought protein; also called human Trop2 protein antigen (His tag); not shown: His tag
T1 sequence (looked up): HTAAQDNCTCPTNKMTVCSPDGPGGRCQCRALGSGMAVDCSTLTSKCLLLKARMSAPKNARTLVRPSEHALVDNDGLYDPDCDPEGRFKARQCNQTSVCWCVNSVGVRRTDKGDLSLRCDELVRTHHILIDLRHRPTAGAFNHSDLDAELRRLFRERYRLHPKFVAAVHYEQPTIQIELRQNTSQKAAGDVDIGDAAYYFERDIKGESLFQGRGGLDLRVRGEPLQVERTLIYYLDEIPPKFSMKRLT
Test: BLI, Octet RED96, AHC sensor
quantity_kind: Response
I'd appreciate a reply containing only the number, no unit.

Reference set, count: 2
binder	Response
PR001160 (antibody, human IgG1, kappa, V domains shown, fully human IgG1/kappa; also called antibody No. (22)) VH: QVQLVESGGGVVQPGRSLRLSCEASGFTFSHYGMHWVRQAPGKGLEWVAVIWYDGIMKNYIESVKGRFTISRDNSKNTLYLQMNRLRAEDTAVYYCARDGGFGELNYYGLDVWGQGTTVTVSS VL: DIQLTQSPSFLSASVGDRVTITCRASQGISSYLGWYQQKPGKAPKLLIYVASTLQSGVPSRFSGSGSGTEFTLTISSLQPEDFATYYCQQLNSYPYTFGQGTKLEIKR	0.39
PR001166 (antibody, human IgG1, kappa, V domains shown, fully human IgG1/kappa; also called antibody No. (27)) VH: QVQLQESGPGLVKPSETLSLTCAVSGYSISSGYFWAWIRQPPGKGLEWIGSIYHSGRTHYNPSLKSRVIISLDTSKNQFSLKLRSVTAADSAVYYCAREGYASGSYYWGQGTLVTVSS VL: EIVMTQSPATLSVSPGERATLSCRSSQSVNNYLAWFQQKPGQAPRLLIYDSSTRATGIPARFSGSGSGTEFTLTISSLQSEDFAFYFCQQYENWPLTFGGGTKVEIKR	0.324

// query I have this binder here, comparative example 2 antibody Tab (hRS7) (antibody, human IgG1, kappa, V domains shown, prepared on the basis of sacituzumab govitecan (ChemPartner, #T07-001); naked antibody) VH: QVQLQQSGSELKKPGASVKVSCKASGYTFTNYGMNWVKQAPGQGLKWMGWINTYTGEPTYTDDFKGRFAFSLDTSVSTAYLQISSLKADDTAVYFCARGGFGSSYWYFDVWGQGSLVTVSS VL: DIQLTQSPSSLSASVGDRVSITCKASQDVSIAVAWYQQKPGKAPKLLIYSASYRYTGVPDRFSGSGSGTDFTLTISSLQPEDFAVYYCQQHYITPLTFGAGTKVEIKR , and I need its recorded Response.
// result 0.349
